# Test system: RARa homodimer (NR concentration 270 nM)
# protocolDetails: PBM binding z-score (relative to random genomic background probes); higher = stronger binding; sequences stand for … in GC…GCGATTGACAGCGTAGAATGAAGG
Lab note: anything with PBM binding z-score at or over 0.7 counts as True; the rest go in False.

// below: answered sequences
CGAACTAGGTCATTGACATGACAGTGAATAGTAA; True
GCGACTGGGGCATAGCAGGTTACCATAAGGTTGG; False
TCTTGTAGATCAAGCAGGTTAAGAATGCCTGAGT; False
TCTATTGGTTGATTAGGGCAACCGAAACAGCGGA; False
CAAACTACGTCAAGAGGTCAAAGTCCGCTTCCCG; True

Is PBM binding z-score for `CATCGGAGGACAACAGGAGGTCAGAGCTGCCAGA` at or above 0.7?
False

I'd appreciate it if you could say whether `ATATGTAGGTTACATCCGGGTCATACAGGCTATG` has PBM binding z-score at least equal to 0.7.
False

Hi, just wondering whether `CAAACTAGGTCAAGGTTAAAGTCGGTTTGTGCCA` shows PBM binding z-score of 0.7 or higher.
False

Could you tell me if the measured PBM binding z-score of `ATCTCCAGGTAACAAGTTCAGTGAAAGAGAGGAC` reaches 0.7 or more?
True

---

# System: LXRa homodimer (NR concentration 270 nM)
# protocolDetails: PBM binding z-score (relative to random genomic background probes); higher = stronger binding; sequences stand for … in GC…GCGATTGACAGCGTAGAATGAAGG
parameter: PBM binding z-score
Write the value as a bare number.

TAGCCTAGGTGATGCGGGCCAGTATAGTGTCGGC; -0.841
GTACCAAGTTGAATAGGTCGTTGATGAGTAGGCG; -0.317
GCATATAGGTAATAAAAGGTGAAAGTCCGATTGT; 0.418
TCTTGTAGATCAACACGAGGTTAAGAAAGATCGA; 0.248
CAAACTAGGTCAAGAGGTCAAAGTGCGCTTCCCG; 5.76
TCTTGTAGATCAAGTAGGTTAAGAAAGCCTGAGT; 0.138
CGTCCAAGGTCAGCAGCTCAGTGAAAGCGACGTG; -0.124
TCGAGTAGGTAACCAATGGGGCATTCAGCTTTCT; -0.581

Quickly give me recorded PBM binding z-score for `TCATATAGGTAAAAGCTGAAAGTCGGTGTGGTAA`
-0.108

Hello, please tell me recorded PBM binding z-score for this one: `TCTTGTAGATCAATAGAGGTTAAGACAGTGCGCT`
0.434

Indicate the recorded PBM binding z-score value for this sequence: `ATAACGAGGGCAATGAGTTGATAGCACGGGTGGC`
-0.402

Please indicate PBM binding z-score recorded for `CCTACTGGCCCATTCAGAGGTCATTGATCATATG`
6.69

---

# System: PPARg homodimer (NR concentration 180 nM)
# protocolDetails: PBM binding z-score (relative to random genomic background probes); higher = stronger binding; sequences stand for … in GC…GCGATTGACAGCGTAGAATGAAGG
Use 0.9 as the dividing line for PBM binding z-score, with the line itself on the 1 side and lower values as 0.

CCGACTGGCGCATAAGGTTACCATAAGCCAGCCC; 0
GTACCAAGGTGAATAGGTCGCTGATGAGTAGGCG; 0
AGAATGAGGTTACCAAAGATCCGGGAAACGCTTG; 0
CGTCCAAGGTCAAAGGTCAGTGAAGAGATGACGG; 1
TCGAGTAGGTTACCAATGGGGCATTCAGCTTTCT; 0
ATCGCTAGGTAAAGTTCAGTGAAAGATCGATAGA; 0

Could you please find out whether `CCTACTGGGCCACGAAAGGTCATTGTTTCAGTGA` has PBM binding z-score that meets 0.9 or exceeds it?
1

Would you say `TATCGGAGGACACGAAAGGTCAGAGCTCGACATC` shows PBM binding z-score at minimum 0.9?
1

Is PBM binding z-score at least 0.9? Consider `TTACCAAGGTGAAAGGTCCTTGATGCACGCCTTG`
0

Check this sequence for PBM binding z-score at or above 0.9: `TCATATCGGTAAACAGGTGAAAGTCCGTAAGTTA`
1

Textbook exercise: given the entry `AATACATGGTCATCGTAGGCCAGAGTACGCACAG` , state whether its PBM binding z-score is greater than or equal to 0.9.
0

---

Consider the following sequences and their measured PBM binding z-score readings.
# Tested on: RARb homodimer (NR concentration 270 nM)
# protocolDetails: PBM binding z-score (relative to random genomic background probes); higher = stronger binding; sequences stand for … in GC…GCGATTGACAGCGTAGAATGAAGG
Give your answer as a number; write no unit.

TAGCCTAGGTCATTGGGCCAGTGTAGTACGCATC; 3

Next:
Give RARb homodimer (NR concentration 270 nM) PBM binding z-score for the following sequence: `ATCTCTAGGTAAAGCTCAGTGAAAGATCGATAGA`
-0.225

---

# Test system: PPARg:RXRa 30nM:10nM, anti-RXR (NR concentration 30 nM, RXRa partner concentration 10 nM)
# protocolDetails: PBM binding z-score (relative to random genomic background probes); higher = stronger binding; sequences stand for … in GC…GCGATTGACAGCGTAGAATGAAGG
Hi all, reminder that labels come from PBM binding z-score, split as range A (below 0.4), range B (0.4 to below 1), range C (1 or more)

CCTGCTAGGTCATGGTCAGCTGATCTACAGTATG; range B
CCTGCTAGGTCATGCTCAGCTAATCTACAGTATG; range B
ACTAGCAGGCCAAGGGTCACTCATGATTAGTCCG; range C
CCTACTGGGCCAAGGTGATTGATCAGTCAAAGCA; range A
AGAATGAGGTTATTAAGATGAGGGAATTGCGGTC; range B

Band assignment needed for `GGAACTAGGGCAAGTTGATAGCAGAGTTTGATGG` please.
range C

# classify by PBM binding z-score band: `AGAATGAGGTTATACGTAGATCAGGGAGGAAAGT`
range B

Band for `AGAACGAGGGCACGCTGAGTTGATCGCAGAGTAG` ?
range A

Which category fits this record: `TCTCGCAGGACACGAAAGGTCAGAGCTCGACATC`
range C

---

# Test system: THRa:RXRa (NR concentration 90 nM, RXRa partner concentration 90 nM)
# protocolDetails: PBM binding z-score (relative to random genomic background probes); higher = stronger binding; sequences stand for … in GC…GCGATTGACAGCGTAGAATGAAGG
# binning rule on PBM binding z-score: bottom bin = under 1, middle bin = from 1 up to 2, top bin = 2 and over

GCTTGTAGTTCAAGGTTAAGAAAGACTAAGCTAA; top bin
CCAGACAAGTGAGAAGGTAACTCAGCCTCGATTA; bottom bin
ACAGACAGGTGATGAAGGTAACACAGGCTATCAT; bottom bin
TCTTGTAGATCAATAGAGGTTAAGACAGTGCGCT; top bin
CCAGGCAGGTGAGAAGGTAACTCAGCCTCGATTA; bottom bin
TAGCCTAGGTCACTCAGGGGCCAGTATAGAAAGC; top bin
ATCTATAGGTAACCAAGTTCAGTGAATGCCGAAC; middle bin
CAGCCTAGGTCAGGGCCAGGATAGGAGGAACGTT; top bin

Which bin, given its PBM binding z-score, does `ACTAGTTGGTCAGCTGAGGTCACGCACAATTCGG` occupy?
top bin

Hey, which category is `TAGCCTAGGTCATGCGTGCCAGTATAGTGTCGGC` in, do you know?
top bin

Using the reported PBM binding z-score, which band applies to `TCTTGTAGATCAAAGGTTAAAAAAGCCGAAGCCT` ?
middle bin

Assign a category based on measured PBM binding z-score for `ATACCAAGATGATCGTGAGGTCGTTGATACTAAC` and give only the class name.
top bin

---

# System: RXRa homodimer (NR concentration 180 nM)
# protocolDetails: PBM binding z-score (relative to random genomic background probes); higher = stronger binding; sequences stand for … in GC…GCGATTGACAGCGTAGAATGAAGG
PBM binding z-score: recorded values
Respond using a number only.

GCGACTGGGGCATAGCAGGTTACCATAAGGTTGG; 0.456
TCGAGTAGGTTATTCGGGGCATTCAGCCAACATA; 0.31
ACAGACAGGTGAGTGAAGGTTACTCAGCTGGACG; 0.869

Find the measured PBM binding z-score of `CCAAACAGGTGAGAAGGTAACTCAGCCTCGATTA` and report it.
0.335

Return reported PBM binding z-score. Input sequence: `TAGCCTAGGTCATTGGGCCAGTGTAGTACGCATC`
2.7

Give PBM binding z-score for the following sequence: `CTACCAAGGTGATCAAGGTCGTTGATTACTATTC`
1.11

Tell us which PBM binding z-score value is on record for `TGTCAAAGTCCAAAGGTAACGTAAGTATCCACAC`
0.946

Return PBM binding z-score for the following sequence: `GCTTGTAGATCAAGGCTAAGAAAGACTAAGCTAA`
-0.497

Recall and state the measured PBM binding z-score for `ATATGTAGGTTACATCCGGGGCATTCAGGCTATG` .
1.12

Please look at this sequence and report its PBM binding z-score: `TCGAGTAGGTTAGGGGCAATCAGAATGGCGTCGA`
0.782
